What follows is literature data on pIC50 for human DGAT2 (hDGAT2) (Homo sapiens).
pIC50: −log10 of the molar value.
Parameter: pIC50

{"Compound": "Cc1cc(Oc2ncc(F)cc2OCC(F)F)nn2cc(C(=O)N[C@H]3CCCC(F)(F)[C@@H]3O)nc12", "Measured Result": 7.85}
{"Compound": "CC1(NC(=O)c2ccc3c(-c4cncc(C#N)c4)nn(-c4ccc(F)cc4)c3c2)CCS(=O)(=O)C1 (single isomer, unassigned)", "Measured Result": 7.20}
{"Compound": "Cc1c(C(=O)NC2(C)CCS(=O)(=O)CC2)nc2ccc(Oc3ncc(C(C)C)cc3OCC(F)(F)F)cn12", "Measured Result": 8.18}
{"Compound": "CC1(NC(=O)c2ccc3c(-c4cccc(OCC(F)(F)F)c4)nn(-c4ccc(F)cc4)c3c2)CCS(=O)(=O)C1 (single isomer, unassigned)", "Measured Result": 8.24}
{"Compound": "COc1cccc(-c2ccc(CNC(=O)[C@@H]3C[C@H]3c3ccccc3)c3c2CCN(C(=O)NC2(C)COC2)C3)c1 (relative stereo)", "Measured Result": 7.86}
{"Compound": "O=C(NC1CCS(=O)(=O)C1)c1ccc2c(-c3cccc(OC(F)(F)F)c3)cn(-c3ccc(F)cc3)c2c1 (racemic)", "Measured Result": 7.85}
